Reported EC50 of IFNγ release, mouse splenocytes is given for each of the following binders.
Molecular target: T1, Avi/HisMsIL18BPd (recombinant mouse IL-18BP with Avi and poly-His tags) (mouse, biotinylated with BirA on the Avi tag in some assays)
T1 chain: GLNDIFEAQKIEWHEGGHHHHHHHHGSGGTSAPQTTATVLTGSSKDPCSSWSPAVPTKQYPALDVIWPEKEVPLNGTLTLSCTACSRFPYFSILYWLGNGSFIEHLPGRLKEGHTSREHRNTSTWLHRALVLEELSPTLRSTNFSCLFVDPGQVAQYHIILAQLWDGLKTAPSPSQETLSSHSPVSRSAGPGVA
Test: cell-based or functional assay
Write the answer as a number in nM, unit excluded.

# annotated cases, reported EC50 of IFNγ release, mouse splenocytes shown
anti-IL18BP antibody BP-04 (antibody, V domains shown, also called BP-04 (hybridoma); BP-04 (parental)) VH: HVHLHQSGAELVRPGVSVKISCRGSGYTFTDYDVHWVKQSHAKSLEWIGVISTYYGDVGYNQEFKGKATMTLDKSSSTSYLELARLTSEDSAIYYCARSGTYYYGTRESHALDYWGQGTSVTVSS VL: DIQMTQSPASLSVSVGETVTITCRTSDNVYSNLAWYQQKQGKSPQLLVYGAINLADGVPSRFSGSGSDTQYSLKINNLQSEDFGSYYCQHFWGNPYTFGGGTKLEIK :: 4.29
anti-IL18BP antibody BP-03 (antibody, human IgG1, V domains shown) VH: EVQLQQSGPELVKPGASVKIPCKASGYTFTDYNMDWVKQSHGKSLEWIGNINTDNGGTVYNQKFKGKATLTVDQSSSTAYMELRSLTSEDTAVYYCARSDTTVVASRYYAMDYWGQGTSVTVSS VL: DIVLTQSPASLAMSLGKRATISCRASESVSIIGTNLIHWYQQKPGQPPKLLIYHASNLETGVPARFSGSGSRTDFTLTIDPVEEDDVAIYYCLQSRKIPPTFGGGTKLEIK :: 4.49
anti-IL18BP antibody BP-11 (antibody, human IgG1, V domains shown) VH: QVQLQQSGAELAKPGASVKMSCKASGYTFTNYWMHWVKQRPGQGLEWIGHIDPSTGYTEYNQKFKDKATLTADKSSSTAYMQLSSLTSEDSAVYYCARGLGGLFGYWGQGTLVTVSA VL: DIQMTQSPSSLSASLGGKVTITCKASQDINKFIAWYQHKPGKGPRLLIHHTSTLMPGIPSRFSGSGSGREYSFSISNLEPEDIATYYCLQYDNLLWTFGGGTKLEIR :: 7

Turning now to a further record.
Which value of EC50 of IFNγ release, mouse splenocytes has been reported for anti-IL18BP antibody BP-02 (antibody, human IgG1, V domains shown) VH: EVQLQQSGPELVKPGASVKIPCKASGYTFTDYNMDWVKQSHGKSLEWIGNINTNNGGTVYNQKFKGKATLTVDKSSSTAYMELRSLTSEDTAVYYCARSDTTVVASRYYAMDYWGQGTSVTVSL VL: DIVLTQSPASLAMSLGKRATISCRASESVSIIATNLIHWYQQKPGQPPKLLIYHASNLETGVPARFSGSGSRTDFTLTIDPVEKDDVAIYYCLQSRKIPPTFGGGTKLEIK in the records?
4.3
